src = PubChem BioAssay (NCI)

# Tested on: SK-MEL-5 melanoma
# Assay Text: NCI tumour cell line growth inhibition, 48 h
Value Type: TGI (µM)
Give a bare numeral; the unit µM is implied.

Query (compound): COc1cc(/C=C2\N=C(c3ccccc3)N(c3ccc4c(c3)Sc3cc(N5C(=O)/C(=C/c6cc(OC)c(OC)c(OC)c6)N=C5c5ccccc5)ccc3N4)C2=O)cc(OC)c1OC ; field requested: TGI
30.1

Reported TGI for O=c1[nH]ncc2[nH]c(-c3ccccc3)cc12 : what is it?
60.5

// lookup TGI for CNc1cccc(-c2cc(=O)c3cc4c(cc3[nH]2)OCO4)c1
6.92

* * *

Each entry below lists one item and its recorded TGI value.
# System: NCI-H226 lung
# Assay Text: NCI tumour cell line growth inhibition, 48 h
Give your result in µM as a bare value.

Requested read-out: TGI. Entry: CCOC(=O)C(CC(C)C)NC(=O)C(N)Cc1ccc(N(CCCl)CCCl)cc1 (centres undefined)
29.5

Would you mind telling me what TGI value was observed for C=CC[C@H](O)[C@@](NC(=O)OCc1ccccc1)(Sc1ccc(C)cc1)C(F)(F)F ?
35.9

Value lookup for TGI; key = COC(=O)Nc1nc2ccc(C(=O)C3CC3)cc2[nH]1
30.2

Which TGI is reported for this molecule? Nc1ccc(-c2nnc(-c3c(Cl)c(Cl)c(Cl)c(Cl)c3-c3nc4ccc(C(=O)c5ccccc5)cc4[nH]3)o2)cc1
41.2

* * *

# System: MALME-3M melanoma
# Assay Text: NCI tumour cell line growth inhibition, 48 h
Value Type: TGI (µM)
Give the value in µM but do not write µM after it.

Reference set, count: 3
>>> assay_value("Fc1cc(C2=Nn3c(nnc3-c3cc(F)c(Cl)cc3Cl)SC2)c(Cl)cc1Cl")
66.7
>>> assay_value("CC(C)(Cl)C(Br)CCC(=CCBr)CBr (mixture of isomers)")
4.74
>>> assay_value("CCOC(=O)c1c2c(n(Cc3ccccc3)c1C)-c1nc[nH]c1C(=O)C2=O")
23.9

Next up:
TGI of COc1cc(/C=C2\N=C(c3ccccc3)N(c3ccc4c(c3)Sc3cc(N5C(=O)/C(=C/c6cc(OC)c(OC)c(OC)c6)N=C5c5ccccc5)ccc3N4)C2=O)cc(OC)c1OC on MALME-3M melanoma?
41.1

* * *

# Test system: NCI-H460 lung
# Assay Text: NCI tumour cell line growth inhibition, 48 h
Value Type: TGI

>>> assay_value("COC(=O)c1oc([N+](=O)[O-])c(-c2ccccc2)c1-c1ccccc1")
"> 100 µM"
>>> assay_value("O=C1CCN(CCC(F)(F)C(F)(F)C(F)(F)C(F)(F)F)C(=S)N1")
"> 100 µM"
>>> assay_value("CN(CC(=O)O)S(=O)(=O)c1ccc(Cl)cc1")
"> 100 µM"
>>> assay_value("COc1ccc(/C=C/C(=O)c2ccc(B(O)O)cc2)cc1O")
"> 83.4 µM"
>>> assay_value("O=C(O)CSc1nc2ccccc2[nH]1")
"> 100 µM"
>>> assay_value("CNC(=O)Nn1c(SC)nc2ccccc21")
"> 100 µM"
>>> assay_value("O=C(NC(=S)Nc1ccc(-c2nc3ccccc3[nH]2)cc1)c1ccc2ccccc2c1")
"> 100 µM"
>>> assay_value("Cc1ccc(C2=NN=C3C(c4ccccc4)=Nc4ccccc4N3C2)cc1")
"18.6 µM"
>>> assay_value("COc1cc(C)cc(C(=O)OCc2ccccc2)c1C1=C(Cl)C(=O)C(Cl)=CC1=O")
"> 10 µM"
>>> assay_value("O=C(CC(O)(C(F)(F)Cl)C(F)(F)Cl)CC(O)(C(F)(F)Cl)C(F)(F)Cl")
"> 10 µM"

Item under review: N#CC1(C#N)C2C=CC(C3CC=CC32)C1(C#N)C#N (stereo unspecified) . Reported TGI?
> 50 µM

I have this compound here, N[C@@H]1c2c(Br)sc(Br)c2C(=O)[C@H]1Br , and I need its recorded TGI.
> 100 µM

What value of TGI has been recorded for this entry: O=C(OC1C#CCSCC#C/C=C\1)c1cnc2ccccc2n1 (stereo unspecified)
33.7 µM

# TGI lookup, item Cc1cc(C)c2c(=O)cc(-c3ccc(F)cc3)[nH]c2n1
> 100 µM

Which measured TGI value corresponds to N#CCC(=O)N/N=C(/C(=O)Nc1ccccc1)C1C(=O)N(c2ccccc2)N=C1N (stereo unspecified) ?
> 100 µM
